All values here come from the Kinase Knowledgebase extract (Sharma et al. 2016).

CDK2 (UniProt P24941): recorded pIC50 for assorted molecules
pIC50: −log10 of the molar value.
property measured: pIC50

Some solved cases for reference:
• COc1cccc(Nc2nc(N(CCO)CCO)nc3[nH]ncc23)c1 = 4.99
• COc1cccc(Nc2nc(N(CCO)CCO)nc3c2cnn3C(C)C)c1 = 4.18

[A] COc1cccc(Nc2nc(NCCO)nc3[nH]ncc23)c1
[B] CC(C)n1ncc2c(NCc3ccc([N+](=O)[O-])cc3)nc(NCCO)nc21
[C] Cn1ncc2c(Nc3cccc(F)c3)nc(NCCO)nc21
Sort these molecules on pIC50 so the largest reading comes first. When ranking, write the labels in the order the request describes.
A, C, B

---

biological target: CDK2 (UniProt P24941)
pIC50: −log10 of the molar value.
property measured: pIC50

[1] CC(C)n1ncc2c(Nc3cccc(Br)c3)nc(NCCO)nc21
[2] OCCN(CCO)c1nc(Nc2cccc(F)c2)c2cn[nH]c2n1
[3] CC(C)n1ncc2c(Nc3cccc(F)c3)nc(N(CCO)CCO)nc21
Order the entries by their reported pIC50, beginning at the minimum. Please reply with the labels ordered as requested. Many thanks.
3, 1, 2

---

GI50 values, listed per item
molecular target: CDK2 (human); test: Cell-Based Assay; conditions: hct-116
Please respond with the number in µM and leave the unit unwritten.

Below: 5 molecules and their reported GI50.
- CC(C)n1ncc2c(Nc3cccc(F)c3)nc(NCCO)nc21: 19.3
- COc1cccc(Nc2nc(NCCO)nc3c2cnn3C(C)C)c1: 21.4
- COc1cccc2c1C(=O)c1c(O)c3c(c(O)c1C2=O)C[C@@](O)(C(=O)CO)CC3O[C@H]1C[C@H](N)[C@H](O)[C@H](C)O1 (some centres undefined): 0.13
- OCCNc1nc(NCc2ccccc2)c2cn[nH]c2n1: 4.5
- Cn1ncc2c(Nc3cccc(Br)c3)nc(N(CCO)CCO)nc21: 16.6

What value of GI50 has been recorded for this entry: COc1cccc(Nc2nc(N(CCO)CCO)nc3c2cnn3C(C)C)c1
12.6

One more molecule: CC(C)n1ncc2c(NCc3ccc([N+](=O)[O-])cc3)nc(NCCO)nc21
77.7

Repeat with Cn1ncc2c(NCc3ccccc3)nc(N(CCO)CCO)nc21
53.4

How about this molecule: CC(C)n1ncc2c(Nc3cccc(Br)c3)nc(N(CCO)CCO)nc21
5.06

Same question for CC(C)n1ncc2c(NCc3ccccc3)nc(NCCO)nc21 please.
57.6

Please answer likewise for CC(C)n1ncc2c(NCc3ccccc3)nc(N(CCO)CCO)nc21
47.7

And then Cn1ncc2c(Nc3cccc(F)c3)nc(N(CCO)CCO)nc21 , what is it?
8.89

Another molecule to look at: OCCN(CCO)c1nc(NCc2ccccc2)c2cn[nH]c2n1
93.6

Next entry: Cn1ncc2c(Nc3cccc(F)c3)nc(NCCO)nc21
28.2

Try this molecule next: COc1cccc(Nc2nc(NCCO)nc3c2cnn3C)c1
90.4

Next molecule: COc1cccc(Nc2nc(N(CCO)CCO)nc3c2cnn3C)c1
17.2

Repeat with CC(C)n1ncc2c(Nc3cccc(F)c3)nc(N(CCO)CCO)nc21
10.9

---

target: CDK2 (human) (UniProt P24941); assay: Cell-Based Assay; settings: snu638
property measured: GI50 (µM)
Report the figure in µM without appending any unit label.

Solved entries (count: 5):
- CC(C)n1ncc2c(NCc3ccccc3)nc(N(CCO)CCO)nc21: 26.1
- Cn1ncc2c(Nc3cccc(F)c3)nc(N(CCO)CCO)nc21: 2.56
- Cn1ncc2c(Nc3cccc(F)c3)nc(NCCO)nc21: 15.8
- CC(C)n1ncc2c(Nc3cccc(F)c3)nc(N(CCO)CCO)nc21: 7.95
- COc1cccc(Nc2nc(N(CCO)CCO)nc3c2cnn3C)c1: 10.5

Please state recorded GI50 (tested on CDK2 (human) (UniProt P24941)) of COc1cccc(Nc2nc(N(CCO)CCO)nc3c2cnn3C(C)C)c1
7.92

Another compound to look at: OCCN(CCO)c1nc(Nc2cccc(Br)c2)c2cn[nH]c2n1
38.9

Try this compound too: CC(C)n1ncc2c(NCc3ccccc3)nc(NCCO)nc21
25.2

Moving on to COc1cccc(Nc2nc(NCCO)nc3[nH]ncc23)c1
17.1

Try this compound next: OCCNc1nc(Nc2cccc(Br)c2)c2cn[nH]c2n1
69.2

---

molecular target: CDK2 (UniProt P24941)
property measured: IC50

Field: example entries. Status: answers known.
- Cn1ncc2c(Nc3cccc(Br)c3)nc(NCCO)nc21: > 100 µM
- Cn1ncc2c(NCc3ccccc3)nc(NCCO)nc21: > 100 µM

With those in mind, consider the next molecule.
Can you share its IC50? I mean this molecule: OCCNc1nc(Nc2cccc(Br)c2)c2cn[nH]c2n1
8.1 µM

---

target: CDK2 (UniProt P24941)
pIC50: −log10 of the molar value.
Overview of reported pIC50 across a group of compounds:

# annotated cases, reported pIC50 shown
• Cn1ncc2c(NCc3ccccc3)nc(N(CCO)CCO)nc21 = < 4.00
• Cn1ncc2c(NCc3ccc(N)cc3)nc(NCCO)nc21 = < 4.00

Query (compound): COc1cccc(Nc2nc(NCCO)nc3c2cnn3C(C)C)c1 ; field requested: pIC50
< 4.00

---

molecular target: CDK2 (human); assay: Cell-Based Assay; settings: hct-116
property measured: GI50

Worked set:
• CC(C)n1ncc2c(NCc3ccc(N)cc3)nc(NCCO)nc21 = > 100 µM
• OCCNc1nc(Nc2cccc(F)c2)c2cn[nH]c2n1 = > 100 µM
• OCCNc1nc(Nc2cccc(Br)c2)c2cn[nH]c2n1 = > 100 µM
• Cn1ncc2c(Nc3cccc(Br)c3)nc(NCCO)nc21 = > 100 µM
• Cn1ncc2c(NCc3ccccc3)nc(NCCO)nc21 = > 100 µM

Record request: GI50 value, item OCCN(CCO)c1nc(Nc2cccc(F)c2)c2cn[nH]c2n1
> 100 µM

Also check OCCN(CCO)c1nc(Nc2cccc(Br)c2)c2cn[nH]c2n1
> 100 µM

What do you get for Cn1ncc2c(NCc3ccc(N)cc3)nc(NCCO)nc21 ?
> 100 µM

Same for COc1cccc(Nc2nc(N(CCO)CCO)nc3[nH]ncc23)c1
> 100 µM

Same read-out for Cn1ncc2c(NCc3ccc([N+](=O)[O-])cc3)nc(NCCO)nc21 ?
48.5 µM

Please give the result for COc1cccc(Nc2nc(NCCO)nc3[nH]ncc23)c1 too.
38.2 µM

Can you handle CC(C)n1ncc2c(Nc3cccc(Br)c3)nc(NCCO)nc21 next?
6.46 µM

---

biological target: CDK2 (human) (UniProt P24941); assay: Cell-Based Assay; conditions: snu638
property measured: GI50 (µM)
Enter your answer as a number in µM; do not include the unit.

• Cn1ncc2c(NCc3ccc([N+](=O)[O-])cc3)nc(NCCO)nc21 = 24.9
• OCCNc1nc(NCc2ccccc2)c2cn[nH]c2n1 = 20.8
• CC(C)n1ncc2c(NCc3ccc([N+](=O)[O-])cc3)nc(NCCO)nc21 = 23.4
• CC(C)n1ncc2c(Nc3cccc(Br)c3)nc(NCCO)nc21 = 4.28
• COc1cccc(Nc2nc(NCCO)nc3c2cnn3C(C)C)c1 = 7.55

GET /values?readout=GI50&item= Cn1ncc2c(Nc3cccc(Br)c3)nc(NCCO)nc21
18.2

Here is the next molecule: Cn1ncc2c(NCc3ccccc3)nc(N(CCO)CCO)nc21
25.3

Note, next up: Cn1ncc2c(NCc3ccc(N)cc3)nc(NCCO)nc21
96.8

For Cn1ncc2c(Nc3cccc(Br)c3)nc(N(CCO)CCO)nc21 then?
6.2

Again, but for COc1cccc(Nc2nc(NCCO)nc3c2cnn3C)c1
21.7

Would you mind doing CC(C)n1ncc2c(NCc3ccc(N)cc3)nc(NCCO)nc21 as well?
38.2

---

target: CDK2 (human) (UniProt P24941); test: Cell-Based Assay; settings: snu638
Overview of recorded GI50 for various molecules

// known answers, use as guide
• OCCNc1nc(Nc2cccc(F)c2)c2cn[nH]c2n1 = > 100 µM
• OCCN(CCO)c1nc(Nc2cccc(F)c2)c2cn[nH]c2n1 = > 100 µM

Attention now turns to another entry.
Look at this molecule and give its reported GI50. COc1cccc(Nc2nc(N(CCO)CCO)nc3[nH]ncc23)c1
> 100 µM
